# System: SK-MEL-28 melanoma
# Method: NCI tumour cell line growth inhibition, 48 h
We begin with a simple list: items and their reported TGI.

// TGI lookup, key: `Brc1ccc(-c2cc3c(cc2C2SCCS2)OCO3)cc1`
> 100 µM

// query TGI value for entry CC12CCc3ccccc3C1=NNC(=O)C2 (stereo unspecified)
> 100 µM

For the molecule `COc1cc(O)c(Cc2ccccc2O)c(O)c1C(=O)CCc1ccccc1` , what TGI is on record?
27.2 µM

State the recorded TGI for this entry: CC1CN(CCO)CCN1c1ccccc1 (stereo unspecified)
> 100 µM

So what's the measured TGI for this one? CCN(CC)c1ccc(C2N3CCCCC3[C@@H]3c4[nH]c5ccccc5c4CCN23)cc1 (stereo partly specified)
58 µM

More entries:
Any idea what its TGI is? The molecule is `CCNC(=S)NNC(=O)c1ccccc1Nc1ccccc1C(=O)NNC(=S)NCC`
> 100 µM
